Assay: Pharmacokinetic study in rats after intraperitoneal injection (UHPLC-MS/MS)
Format: in vivo, Sprague Dawley rats
Settings: both sexes, Sprague Dawley, rat, plasma, ip, single intraperitoneal injection 0.36 mg/kg, total (male and female), mean ± SD
MEASURED PROPERTY: half-life (min)
Answer with a number only, understood to be in min.

IN: Record request: half-life value, item COc1ccc(Oc2ccc(C(F)(F)F)cc2NC(=O)CC(CC(=O)O)c2ccccc2)cc1 (stereo not shown)
OUT: 26.4

====

Assay: Tissue distribution in rats after intraperitoneal injection
Format: in vivo, Sprague Dawley rats
Details: Sprague Dawley, rat, most tissues (tissue homogenate), ip, intraperitoneal 0.36 mg/kg, most tissues, read-out: time of maximum concentration in most tissues
MEASURED PROPERTY: Tmax (min)
Answer with a number only, understood to be in min.

IN: Record request: Tmax value, item COc1ccc(Oc2ccc(C(F)(F)F)cc2NC(=O)CC(CC(=O)O)c2ccccc2)cc1 (stereo not shown)
OUT: 1.98

====

Assay: Pharmacokinetic study in rats after intraperitoneal injection (UHPLC-MS/MS)
Type: in vivo, Sprague Dawley rats
Conditions: both sexes, Sprague Dawley, rat, plasma, ip, single intraperitoneal injection 0.36 mg/kg, total (male and female), mean ± SD
MEASURED PROPERTY: AUC(0-t) (ng·h/mL)
Answer with a number only, understood to be in ng·h/mL.

IN: Record request: AUC(0-t) value, item COc1ccc(Oc2ccc(C(F)(F)F)cc2NC(=O)CC(CC(=O)O)c2ccccc2)cc1 (stereo not shown) [84-B10]
OUT: 269

====

Test: Pharmacokinetic study in rats after intraperitoneal injection (UHPLC-MS/MS)
Assay type: in vivo, Sprague Dawley rats
Conditions: Sprague Dawley, rat, plasma, ip, single intraperitoneal injection 0.36 mg/kg, female, mean ± SD
MEASURED PROPERTY: AUC(0-inf) (ng·h/mL)
Answer with a number only, understood to be in ng·h/mL.

IN: Record request: AUC(0-inf) value, item COc1ccc(Oc2ccc(C(F)(F)F)cc2NC(=O)CC(CC(=O)O)c2ccccc2)cc1 (stereo not shown)
OUT: 241

====

Assay: Pharmacokinetic study in rats after intraperitoneal injection (UHPLC-MS/MS)
Type: in vivo, Sprague Dawley rats
Conditions: both sexes, Sprague Dawley, rat, plasma, ip, single intraperitoneal injection 0.36 mg/kg, total (male and female), mean ± SD
MEASURED PROPERTY: AUC(0-inf)

IN: Record request: AUC(0-inf) value, item COc1ccc(Oc2ccc(C(F)(F)F)cc2NC(=O)CC(CC(=O)O)c2ccccc2)cc1 (stereo not shown)
OUT: 278 ng·h/mL

====

Assay: Pharmacokinetic study in rats after intraperitoneal injection (UHPLC-MS/MS)
Type: in vivo, Sprague Dawley rats
Details: Sprague Dawley, rat, plasma, ip, single intraperitoneal injection 0.36 mg/kg, female, mean ± SD
MEASURED PROPERTY: Tmax
Express your answer as a number followed by its unit.

IN: Record request: Tmax value, item COc1ccc(Oc2ccc(C(F)(F)F)cc2NC(=O)CC(CC(=O)O)c2ccccc2)cc1 (stereo not shown)
OUT: 8.4 min

====

Assay: Pharmacokinetic study in rats after intraperitoneal injection (UHPLC-MS/MS)
Type: in vivo, Sprague Dawley rats
Details: Sprague Dawley, rat, plasma, ip, single intraperitoneal injection 0.36 mg/kg, female, mean ± SD, read-out: Cmax
MEASURED PROPERTY: Cmax (ng/mL)
Answer with a number only, understood to be in ng/mL.

IN: Record request: Cmax value, item COc1ccc(Oc2ccc(C(F)(F)F)cc2NC(=O)CC(CC(=O)O)c2ccccc2)cc1 (stereo not shown)
OUT: 231

Source of measurements: paper PMC10780175
